assay_notes: Ultraviolet absorption spectrum (spectrophotometer, quartz cell, optical path 10 mm)
Format: physicochemical
experimental_conditions: ethanol solution
# reported Wavelength at the maximum absorption; entries follow
endpoint_name: Wavelength at the maximum absorption (nm)

smiles_data=C=Cc1ccc(C=NN(CC(=O)OCC)C(=S)N(C)C)cc1 assay_value=381
smiles_data=C=Cc1ccc(C=NN(C)C(=S)N(C)C)cc1 assay_value=331
smiles_data=C=Cc1ccc(C=NN(C)C(=O)NCC(=O)OCC)cc1 assay_value=311
smiles_data=C=Cc1ccc(C=NN(C)C(=S)NCC(=O)O)cc1 assay_value=332
smiles_data=C=Cc1ccc(C=NN(C)C(=S)NCC(=O)OC)cc1 assay_value=332
smiles_data=C=Cc1ccc(C=NN(CC(=O)O)C(=S)NC)cc1 assay_value=315
smiles_data=C=Cc1ccc(C=NN(CCO)C(=S)NC)cc1 assay_value=322
smiles_data=C=Cc1ccc(C=NN(C)C(=S)NC)cc1 assay_value=315
smiles_data=C=Cc1ccc(C=NN(CCCC(=O)O)C(=S)NC)cc1 assay_value=332

* * *

assay_notes: Ultraviolet absorption spectrum (spectrophotometer, quartz cell, optical path 10 mm)
Assay type: physicochemical
experimental_conditions: ethanol solution, at the maximum absorption
# reported Molar extinction coefficient; entries follow
endpoint_name: Molar extinction coefficient

compound="C=Cc1ccc(C=NN(C)C(=O)NCC(=O)OCC)cc1 [Example 3]" assay_value=33,000
compound="C=Cc1ccc(C=NN(CCCC(=O)O)C(=S)NC)cc1 [Example 5]" assay_value=38,000
compound="C=Cc1ccc(C=NN(CC(=O)OCC)C(=S)N(C)C)cc1 [Example 6]" assay_value=34,000
compound="C=Cc1ccc(C=NN(C)C(=S)NCC(=O)O)cc1 [Example 2]" assay_value=44,000
compound="C=Cc1ccc(C=NN(C)C(=S)NCC(=O)OC)cc1 [Example 1]" assay_value=44,000
compound="C=Cc1ccc(C=NN(C)C(=S)NC)cc1 [Example 7]" assay_value=34,000
compound="C=Cc1ccc(C=NN(CC(=O)O)C(=S)NC)cc1 [Example 4]" assay_value=34,000
compound="C=Cc1ccc(C=NN(CCO)C(=S)NC)cc1 [Example 9]" assay_value=40,000
compound="C=Cc1ccc(C=NN(C)C(=S)N(C)C)cc1 [Example 8]" assay_value=29,000

Provenance of the data: patent EP0348513A1
